Origin of measurements: the OligoGym collection

target_or_test_system: SLC10A3
protocol_description: pooled miR-30 sensor sort-seq; sequence = guide strand
assay_setup: shRNA
The following sequences are shown together with reported sensor-assay potency score (higher = more potent) values.
// no unit string in output, number only

Use the examples below as a reference point.
{"columns": ["residue_codes", "reported_value"],
 "data": [
  ["TAGTGCATGAGAACTTTGGTGG", 0.0901],
  ["AAAGATAAGAGGCAGGAGCAGG", -0.888]
]}

Query: Enter reported sensor-assay potency score (higher = more potent) observed with SLC10A3 for `TCTTGATGGTCAGCACCTCTGT`
Response: -1.25

Query: One more sequence: `TTGGGTTTTCCGAGAAGTGGGC`
Response: 0.0759

Query: Param item: `TCTCCAATGCTCAAGTAGCGGC`
Response: -0.783
